Measured Ki accompanies every entry in the list below.
# ASSAY SYSTEM: Peptidyl-prolyl cis-trans isomerase FKBP5 (Homo sapiens, UniProt Q13451)
# Sequence (Q13451 whole entry): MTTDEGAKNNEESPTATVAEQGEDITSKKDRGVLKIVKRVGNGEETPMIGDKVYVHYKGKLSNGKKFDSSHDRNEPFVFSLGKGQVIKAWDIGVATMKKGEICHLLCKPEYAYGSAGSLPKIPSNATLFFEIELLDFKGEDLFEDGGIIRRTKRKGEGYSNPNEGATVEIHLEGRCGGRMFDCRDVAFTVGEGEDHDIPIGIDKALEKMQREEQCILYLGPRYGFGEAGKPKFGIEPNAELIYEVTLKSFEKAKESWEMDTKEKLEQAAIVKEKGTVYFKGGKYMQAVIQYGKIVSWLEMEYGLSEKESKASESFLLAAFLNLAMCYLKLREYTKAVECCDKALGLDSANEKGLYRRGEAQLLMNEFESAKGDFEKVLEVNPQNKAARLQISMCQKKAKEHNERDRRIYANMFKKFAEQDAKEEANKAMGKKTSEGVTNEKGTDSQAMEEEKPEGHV
RECORDED METRIC: Ki (nM)

> print(dat)
                           molecular.string  observed.measurement
1  COc1cccc([C@@H](C(=O)N2CCCC[C@H]2C(=O)O[C@H](CCc2ccc(OC)c(OC)c2)c2cccc(OCC(=O)O)c2)C2CCCCC2)c1                   160
2  COc1cc(OC)cc([C@@H](C(=O)N2CCCC[C@H]2C(=O)O[C@H](CCc2ccc(OC)c(OC)c2)c2cccc(OCC(=O)O)c2)C2CCCCC2)c1                   110

Hey, just so you know, these numbers are from ChEMBL document CHEMBL3621038.
